The origin of these recorded values is ChEMBL document CHEMBL4196231.

Protein AF-9 (Homo sapiens, UniProt P42568): reported pIC50 for various molecules.
Square brackets hold non-standard residues; d marks the D form. Peptide text beside a SMILES is read from it. * marks the point of attachment. X3 = c1ccc(-c2cn(CC3CCCCC3)c([C@@H]3CCCN3*)n2)cc1; Ala(cPent) = N[C@@H](CC1CCCC1)C(=O)O; Ala(cPr) = N[C@@H](CC1CC1)C(=O)O; Pentanoyl(4-Me) = CC(C)CCC(=O)*; Cha = N[C@@H](CC1CCCCC1)C(=O)O; Dap = NC[C@H](N)C(=O)O
Field pIC50 (float): negative decimal logarithm of the concentration in molar.

Check out these entries, answers already filled in.
molecule="CC[C@H](C)[C@H](NC(=O)[C@@H]1CCCN1C(=O)[C@H](CC(C)C)NC(C)=O)C(=O)N[C@@H](CO)C(=O)N[C@@H](CC1CCCCC1)C(=O)N1CCC[C@H]1C(=O)N[C@@H](CC(C)C)C(=O)N(C)C (Ac-LPIS[Cha]PL-NMe2)" reported_result=5.94
molecule="CC[C@H](C)[C@H](NC(=O)[C@H](CO)NC(=O)[C@H](CC1CC1)NC(=O)[C@@H]1CCCN1C(=O)[C@H](CC(C)C)NC(C)=O)C(=O)N1CCC[C@H]1C(=O)N[C@@H](CC(C)C)C(=O)N(C)C (Ac-LP[Ala(cPr)]SIPL-NMe2)" reported_result=5.37
molecule="CC[C@H](C)[C@H](NC(=O)[C@@H]1CCCN1C(=O)[C@H](CC(C)C)NC(C)=O)C(=O)N[C@@H](CO)C(=O)N[C@@H](Cc1c[nH]c2ccccc12)C(=O)N1CCC[C@H]1C(=O)N[C@@H](CC(C)C)C(=O)N(C)C (Ac-LPISWPL-NMe2)" reported_result=5.63

Q: For Protein AF-9 (Homo sapiens, UniProt P42568), give the measured pIC50 of the entry CC(C)CCC(=O)N1CCC[C@H]1C(=O)N[C@H](C(=O)N[C@@H](CN)C(=O)N[C@@H](CC1CCCC1)C(=O)N1CCC[C@H]1c1nc(-c2ccccc2)cn1CC1CCCCC1)C(C)C ({Pentanoyl(4-Me)}-PV[Dap][Ala(cPent)]-X3)
Result: 6.83

---

Molecular target: Protein AF-9 (Homo sapiens)
Sequence (P42568 whole entry): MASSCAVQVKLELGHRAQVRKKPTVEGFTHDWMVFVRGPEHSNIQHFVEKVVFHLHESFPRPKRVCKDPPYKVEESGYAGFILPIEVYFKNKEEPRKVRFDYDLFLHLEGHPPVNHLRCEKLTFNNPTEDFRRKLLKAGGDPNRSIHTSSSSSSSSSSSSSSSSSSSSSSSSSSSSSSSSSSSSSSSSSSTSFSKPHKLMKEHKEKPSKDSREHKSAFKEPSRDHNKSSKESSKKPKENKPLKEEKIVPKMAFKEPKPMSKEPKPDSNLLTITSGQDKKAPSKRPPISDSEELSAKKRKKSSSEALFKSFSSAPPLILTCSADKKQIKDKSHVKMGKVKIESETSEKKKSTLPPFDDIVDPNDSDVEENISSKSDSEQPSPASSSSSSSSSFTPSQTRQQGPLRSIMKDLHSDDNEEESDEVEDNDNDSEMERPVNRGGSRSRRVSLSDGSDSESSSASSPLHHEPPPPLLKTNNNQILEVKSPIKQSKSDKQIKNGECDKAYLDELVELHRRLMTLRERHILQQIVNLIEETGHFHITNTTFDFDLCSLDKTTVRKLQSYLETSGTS
Square brackets hold non-standard residues; d marks the D form. Peptide text beside a SMILES is read from it. * marks the point of attachment. X2 = CC(C)n1cc(-c2ccccc2)nc1[C@@H]1CCCN1*; 1Nal = N[C@@H](Cc1cccc2ccccc12)C(=O)O; Ala(cPent) = N[C@@H](CC1CCCC1)C(=O)O; Gly(cPent) = N[C@H](C(=O)O)C1CCCC1; Cba = N[C@@H](CC1CCC1)C(=O)O; Dap = NC[C@H](N)C(=O)O
Measured pIC50 values are reported for all entries that follow.
Field pIC50 (float): negative decimal logarithm of the concentration in molar.

compound="CC[C@H](C)[C@H](NC(=O)[C@H](CO)NC(=O)[C@H](CC1CCC1)NC(=O)[C@@H]1CCCN1C(=O)[C@H](CC(C)C)NC(C)=O)C(=O)N1CCC[C@H]1C(=O)N[C@@H](CC(C)C)C(=O)N(C)C (Ac-LP[Cba]SIPL-NMe2)" reported_property=pIC50 reported_result=5.14

Q: Write down pIC50 measured for item CC[C@H](C)[C@H](NC(=O)[C@@H]1CCCN1C(=O)[C@H](CC(C)C)NC(C)=O)C(=O)N[C@@H](CN)C(=O)N[C@H](C(=O)N1CCC[C@H]1C(=O)N[C@@H](CC(C)C)C(=O)N(C)C)[C@@H](C)CC (Ac-LPI[Dap]IPL-NMe2)
Result: 5.92

Q: Write down pIC50 measured for item CC[C@H](C)[C@H](NC(=O)[C@@H]1CCCN1C(=O)[C@H](CC(C)C)NC(C)=O)C(=O)N[C@@H](CO)C(=O)N[C@H](C(=O)N1CCC[C@H]1C(=O)N[C@@H](CC(C)C)C(=O)N(C)C)C1CCCC1 (Ac-LPIS[Gly(cPent)]PL-NMe2)
Result: 5.83

Q: Write down pIC50 measured for item CC[C@H](C)[C@H](NC(=O)[C@@H]1CCCN1C(=O)[C@H](CC(C)C)NC(C)=O)C(=O)N[C@@H](CO)C(=O)N[C@@H](Cc1cccc2ccccc12)C(=O)N1CCC[C@H]1C(=O)N[C@@H](CC(C)C)C(=O)N(C)C (Ac-LPIS[1Nal]PL-NMe2)
Result: 4.85

Q: Write down pIC50 measured for item CC(=O)N[C@@H](CC(C)C)C(=O)N1CCC[C@H]1C(=O)N[C@H](C(=O)N[C@@H](CN)C(=O)N[C@@H](CC1CCCC1)C(=O)N1CCC[C@H]1c1nc(-c2ccccc2)cn1C(C)C)C(C)C (Ac-LPV[Dap][Ala(cPent)]-X2)
Result: 6.43
